Hey, just so you know, these numbers are from PubChem BioAssay.

- Test system: XIP peptide (Xip251-270)
- Test name: small-molecule binders of XIP peptide, primary screen, biochemical, small-molecule microarray, fluorescence 635/667 nm, 0.5 µg/mL protein (AID 1183)
- Condition info: small-molecule microarray binding, fluorescence 635 nm; higher = more signal
Consider the following compounds and their measured composite z-score readings.

Answered cases to consult:
Enquiry: Identify measured composite z-score associated with `C[N+](C)(C)CCCCCCNC(=O)[C@@H]1C[C@@H]2C(=O)N[C@@H](Cc3ccccc3)C(=O)N2[C@@H]1c1cccc(OCCO)c1`
Return: 0.814

Enquiry: # return recorded composite z-score for entry `COCCOC(=O)N1C(=O)[C@@]2(c3cc(C#CCNC(N)=O)ccc31)[C@H](C(=O)Nc1nc3ccccc3s1)[C@H]1C(=O)O[C@H](c3ccccc3)[C@H](c3ccccc3)N1[C@@H]2c1ccc(OCCO)cc1`
Return: -0.221

Enquiry: State its composite z-score for this compound: `COc1cc2c(cc1OC)CN(C(=O)[C@H]1[C@@H]3C(=O)O[C@@H](c4ccccc4)[C@@H](c4ccccc4)N3[C@@H](c3ccc(O)cc3)[C@]13C(=O)Nc1ccc(C#CCCO)cc13)CC2`
Return: 0.798

Enquiry: Specify reported composite z-score for the compound shown: `O=C1C[C@]2(c3ccc([N+](=O)[O-])cc3)C(=O)N(CC(F)(F)F)c3cc(CO)ccc3[C@H]2N1C1CCCCC1`
Return: 0.0582

Enquiry: Give the measured composite z-score for `Cc1nc2cc(Br)ccc2c(=O)o1`
Return: 0.139

Enquiry: Please look at this compound and report its composite z-score: `COC(=O)C(CC#Cc1ccc2c(c1)[C@]1(C(=O)N2)[C@H](C(=O)Nc2nc3ccccc3s2)[C@H]2C(=O)O[C@H](c3ccccc3)[C@H](c3ccccc3)N2[C@@H]1c1ccccc1OCCO)C(=O)OC`
Return: 0.815

More entries:
Enquiry: Give composite z-score for the following compound: `COc1ccc([C@H]2OC[C@@H]3C[C@@H](Cc4ccccc4)C(=O)N32)cc1`
Return: 0.0682

====

- Target: Epidermal growth factor receptor (Homo sapiens) (UniProt P00533)
- Sequence (P00533 whole entry, looked up): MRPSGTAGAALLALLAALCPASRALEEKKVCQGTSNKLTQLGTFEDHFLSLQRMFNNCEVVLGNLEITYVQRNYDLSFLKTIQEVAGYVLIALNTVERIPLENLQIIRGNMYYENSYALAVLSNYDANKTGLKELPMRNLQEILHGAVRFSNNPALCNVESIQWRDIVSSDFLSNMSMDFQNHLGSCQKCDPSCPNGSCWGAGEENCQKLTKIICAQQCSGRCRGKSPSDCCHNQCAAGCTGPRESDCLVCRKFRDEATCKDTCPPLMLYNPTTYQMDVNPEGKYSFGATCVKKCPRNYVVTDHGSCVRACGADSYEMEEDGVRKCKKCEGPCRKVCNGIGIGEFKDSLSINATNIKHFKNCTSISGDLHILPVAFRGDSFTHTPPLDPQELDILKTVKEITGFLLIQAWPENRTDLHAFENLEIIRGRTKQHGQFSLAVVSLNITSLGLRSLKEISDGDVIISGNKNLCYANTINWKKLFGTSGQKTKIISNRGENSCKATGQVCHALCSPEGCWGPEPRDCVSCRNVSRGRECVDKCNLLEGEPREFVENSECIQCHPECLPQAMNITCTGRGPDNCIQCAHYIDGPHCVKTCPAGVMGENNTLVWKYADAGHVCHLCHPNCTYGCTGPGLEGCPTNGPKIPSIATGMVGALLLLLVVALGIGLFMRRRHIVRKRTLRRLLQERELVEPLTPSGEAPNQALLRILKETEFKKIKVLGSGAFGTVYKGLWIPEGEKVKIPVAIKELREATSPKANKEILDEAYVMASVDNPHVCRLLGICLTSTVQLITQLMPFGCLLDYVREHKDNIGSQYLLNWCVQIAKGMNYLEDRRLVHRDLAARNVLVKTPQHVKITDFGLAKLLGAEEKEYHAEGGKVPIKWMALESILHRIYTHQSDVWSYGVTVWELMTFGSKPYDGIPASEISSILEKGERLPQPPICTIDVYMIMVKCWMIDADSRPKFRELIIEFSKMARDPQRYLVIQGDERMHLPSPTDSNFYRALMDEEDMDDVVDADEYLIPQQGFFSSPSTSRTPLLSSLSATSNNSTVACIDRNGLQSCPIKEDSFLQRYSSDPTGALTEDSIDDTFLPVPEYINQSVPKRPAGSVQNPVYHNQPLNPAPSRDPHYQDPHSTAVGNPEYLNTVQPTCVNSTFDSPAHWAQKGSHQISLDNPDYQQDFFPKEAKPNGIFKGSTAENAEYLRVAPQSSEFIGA
- Test name: EGFR binders on small-molecule microarrays, primary screen, biochemical, small-molecule microarray, 635 nm fluorescence (AID 1104);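 note: score merges 667 nm emission intensity with spot signal to noise over triplicate slides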
- Condition info: EGFR binding, higher = more signal
Response key: Y means composite z-score >= -0.07; N means composite z-score < -0.07.

Reference set (2 entries):
Enquiry: Test whether the compound `COc1ccc([Si](C)(C)[C@@H]2[C@@H](CCO)O[C@]3(C(=O)N(Cc4ccc(N(C=O)c5ccccc5)cc4)c4ccccc43)[C@H]2C)cc1` records composite z-score of -0.07 or higher.
Return: Y

Enquiry: API: above_or_equal(metric=composite z-score, cutoff=-0.07) for item `CN(C)CCCCCCNC(=O)[C@H]1C[C@H]2C(=O)N3CCC[C@H]3C(=O)N2[C@H]1c1ccc(O)cc1`
Return: Y

Continue with the compound presented below.
Enquiry: API: above_or_equal(metric=composite z-score, cutoff=-0.07) for item `COC(=O)[C@@]1(Cc2ccc(OC)cc2)[C@H]2c3cc(C(=O)N4CCCC4)n(CCN4CNCC4=O)c3C[C@H]2CN1C(=O)c1ccccc1`
Return: Y

====

- Target: Calmodulin-1 (Homo sapiens)
- Test name: CALM1 binders on microarrays, EGTA buffer, profiling panel, biochemical, small-molecule microarray, Cy5-labelled CALM1 (AID 1111);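 note: labelled calmodulin applied in Tris saline Tween buffer holding calcium plus EGTA and DTT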
- Condition info: Cy5-CALM1 binding fluorescence, higher = more signal
Threshold rule: composite z-score greater than or equal to 0.5 is 1; below that, -1.

Enquiry: API: above_or_equal(metric=composite z-score, cutoff=0.5) for item `Cc1ccc(S[C@]2(C(=O)NCCCN(C)C)CC(=O)N(Cc3cc(C(F)(F)F)cc(C(F)(F)F)c3)[C@@H]2c2ccc(CO)cc2)cc1`
Return: -1

Enquiry: Please tell me: is the compound `O=C1C[C@@](C(=O)NC2CC2)(c2ccc([N+](=O)[O-])cc2)[C@@H](c2ccc(CO)cc2I)N1C1CCCCC1` at or over 0.5 in terms of composite z-score?
Return: 1

Others:
Enquiry: Could you tell me if the measured composite z-score of `COCCOC(=O)N1C(=O)[C@@]2(c3cc(C#CCNC(N)=O)ccc31)[C@H](C(=O)Nc1nc3ccccc3s1)[C@H]1C(=O)O[C@H](c3ccccc3)[C@H](c3ccccc3)N1[C@@H]2c1ccc(OCCO)cc1` reaches 0.5 or more?
Return: 1

Enquiry: Assess whether reported composite z-score for CC1(C)[C@@H]2CC(C(O)C3C=CC4C(=O)N(Cc5ccccc5)C(=O)C4N3n3cnnc3)=C[C@H]1C2 (stereo partly drawn) sits at 0.5 or higher.
Return: 1

Enquiry: Kindly determine if composite z-score recorded for `COc1ccc([Si](C)(C)[C@@H]2[C@@H](CC(=O)N3CCC[C@H]3CO)O[C@]3(C(=O)N(c4ccccc4)c4ccccc43)[C@H]2C)cc1` is above or exactly 0.5.
Return: 1

Enquiry: API: above_or_equal(metric=composite z-score, cutoff=0.5) for item `COC(=O)[C@@]1(Cc2ccc(F)cc2)[C@H]2c3cc(C(=O)N4CCCC4)n(CCCNc4ncc(C(F)(F)F)cc4Cl)c3C[C@H]2CN1C(=O)c1ccccc1`
Return: 1

====

- Test name: binders of probe aFGF2 on microarray, primary screen, stem cell growth factor project, biochemical, small-molecule microarray, fluorescence 635/667 (AID 1067);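 note: measures binding of biotinylated aFGF2 protein to printed compounds on slides; z-score merges feature fluorescence and signal-to-noise across triplicate slides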
- Condition info: higher = more signal
Short version: composite z-score at least 0.04 is 1, less is -1.

Observe how each entry below is paired with its result.
Enquiry: Threshold query (composite z-score >= 0.04) on `C=C(/C(=C/C[C@H](OC(C)=O)c1ccc(CO)o1)c1cc(C(=O)OC)ccc1OC)C(C)C`
Return: -1

Enquiry: Given the entry `C=CCOC(=O)[C@@H]1[C@H]2C(=O)O[C@H](c3ccccc3)[C@H](c3ccccc3)N2[C@H](c2ccc(OCCOC(=O)[C@@H]3C[C@@H]4C(=O)NCC(=O)N4[C@@H]3c3ccc(O)cc3)cc2)[C@@]12C(=O)Nc1ccc(I)cc12` , answer whether its composite z-score meets or surpasses 0.04.
Return: 1

Enquiry: Record `CN(C)CCCC[C@@H]1NC(=O)[C@H]2C[C@@H](C(=O)NCCCCCCN)[C@@H](c3ccc(O)cc3)N2C1=O` ; criterion: composite z-score no lower than 0.04. Met?
Return: 1

Enquiry: Decide: composite z-score of `COCCOC(=O)N1C(=O)[C@@]2(c3cc(C#CCC(C(=O)OC)C(=O)OC)ccc31)[C@H](c1ccccc1OCCO)N1[C@H](c3ccccc3)[C@H](c3ccccc3)OC(=O)[C@H]1[C@@H]2C(=O)N1CCN(c2ncccn2)CC1` >= 0.04?
Return: 1

Enquiry: Can `O=C1O[C@@H](c2ccccc2)[C@@H](c2ccccc2)N2[C@@H](c3ccccc3OCCO)[C@]3(C(=O)Nc4ccccc43)[C@@H](C(=O)Nc3nc4ccccc4s3)[C@H]12` be said to have composite z-score at or above 0.04?
Return: 1

// switching to the query molecule
Enquiry: Please tell me: is the molecule `COCCCNC(=O)[C@]1(CCC(=O)OC(C)(C)C)N=C(c2ccc(OCCCO)cc2)O[C@@H]1c1ccccc1CN=[N+]=[N-]` at or over 0.04 in terms of composite z-score?
Return: 1

====

- Test name: small-molecule microarray binders of probe aShh, primary screen, biochemical, biotinylated probe, 635/667 nm fluorescence (AID 1114);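 note: probe is biotin-labelled aShh protein from a stem cell growth factor screen; measures binding of labelled protein to compounds printed on the slide; score merges feature fluorescence at 667 nm with signal-to-noise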
- Condition info: higher = more signal
Test readout: composite z-score
# output: bare number, no unit

Enquiry: Look up and state reported composite z-score for `COC(=O)c1c(CC[C@@H](CO)NC(=O)NCCn2cc(C3(O)CCCC3)nn2)oc(C(C)=O)c1C(=O)OC`
Return: -0.195

Enquiry: Determine from records and report composite z-score for `COCCOC(=O)N1C(=O)[C@@]2(c3cc(C#CCC(C(=O)OC)C(=O)OC)ccc31)[C@H](c1ccccc1OCCO)N1[C@H](c3ccccc3)[C@H](c3ccccc3)OC(=O)[C@H]1[C@@H]2C(=O)N1CCN(c2ncccn2)CC1`
Return: 0.166

Enquiry: Answer with the recorded composite z-score for the molecule listed here: `Cc1ccc(S[C@]2(C(=O)O)CC(=O)N(C(C)C)[C@@H]2c2ccc(CO)cc2I)cc1`
Return: 0.111

Enquiry: Look up and report measured composite z-score for this entry: `COC(=O)C[C@H]1O[C@]2(C(=O)N(C)c3ccccc32)[C@@H](C)[C@@H]1[Si](C)(C)F`
Return: 0.23

Enquiry: Give recorded composite z-score. `C=C(CCCC)C(=O)CC[C@@H](OC(=O)c1ccccc1-c1ccccc1C(=O)O)c1ccc(OCCO)cc1`
Return: 0.0278

Enquiry: Quick one: give measured composite z-score for O=C(OCc1ccccc1)C1=CCC2c3[nH]c4ccccc4c3C(=O)C1N2S(=O)(=O)c1ccccc1[N+](=O)[O-] (configuration not stated)
Return: 0.14

Could you now look at the following molecule, please?
Enquiry: Report composite z-score for `C=CCN1C(=O)[C@@]2(CC=C)N=C(c3ccc(OCCCO)cc3)O[C@H]2c2ccccc21`
Return: -0.0886
